Tested on: HCC1500 (Breast Carcinoma)
ASSAY_INFO: combination Emax (second highest fraction inhibited in the dose matrix, 72 h); higher = more inhibition; extreme values may be limits of the assay
MEASUREMENT_LABEL: combination Emax
A bare number is all that is needed in reply.

Query block: Tell me measured combination Emax for CC(=O)c1c(C)c2cnc(Nc3ccc(N4CCNCC4)cn3)nc2n(C2CCCC2)c1=O [Palbociclib] + Cn1cnc2c(F)c(Nc3ccc(Br)cc3Cl)c(C(=O)NOCCO)cc21 [Selumetinib] (first compound max 10 µM, 7x7, partner max 10 µM) please.
Result block: 0.193

Query block: Tell me measured combination Emax for COc1cccc(OCCCN)c1-c1cc(Nc2cnc(C#N)cn2)n[nH]1 [Prexasertib] + O=C(c1cc(Cc2n[nH]c(=O)c3ccccc23)ccc1F)N1CCN(C(=O)C2CC2)CC1 [Olaparib] (first compound max 1 µM, 7x7, partner max 10 µM) please.
Result block: 0.286

Query block: Tell me measured combination Emax for Cc1c2c(nn1C)CSCc1cc(n(C)n1)CSc1cc(c3ccccc3c1)OCCCc1c(C(=O)O)n(C)c3c-2c(Cl)ccc13 [AZD5991] + C1CN(CCC1(C(=O)N[C@@H](CCO)C2=CC=C(C=C2)Cl)N)C3=NC=NC4=C3C=CN4 [Capivasertib] (first compound max 1 µM, 7x7, partner max 3 µM) please.
Result block: 0.377

Query block: Tell me measured combination Emax for NC1(C(=O)N[C@@H](CCO)c2ccc(Cl)cc2)CCN(c2ncnc3[nH]ccc23)CC1 [Capivasertib] + CC(C)n1c(=O)n(C)c2cnc3cc(F)c(-c4ccc(OCCCN5CCCCC5)nc4)cc3c21 [AZD1390] (first compound max 10 µM, 7x7, partner max 0.3 µM) please.
Result block: 0.165

Query block: Tell me measured combination Emax for Cc1c2c(nn1C)CSCc1cc(n(C)n1)CSc1cc(c3ccccc3c1)OCCCc1c(C(=O)O)n(C)c3c-2c(Cl)ccc13 [AZD5991] + Cc1cc2ncnn2cc1Nc1ncc2c(n1)n(C1CCOCC1)c(=O)n2C [AZD7648] (first compound max 1 µM, 7x7, partner max 10 µM) please.
Result block: 0.465

Query block: Tell me measured combination Emax for COc1nnc2ccc(N3CCC(c4ccc(OCCN5CCN(C)C(=O)[C@H]5C)cc4)CC3)nn12 [AZD5153] + C[C@@H]1COCCN1C2=NC(=NC(=C2)C3(CC3)[S@](=N)(=O)C)C4=C5C=CNC5=NC=C4 [AZD6738] (first compound max 1 µM, 7x7, partner max 10 µM) please.
Result block: 0.454
